Would you kindly list Tmax for each of these molecules?
Test: Pharmacokinetic assay in mice, per oral administration
Type: in vivo
Details: male, mouse, plasma; PO 30 mg/kg, ICR mice, original compound (ester) analyzed
From the text: C. Pharmacokinetic Assay in Mice The purpose of this study was to study the pharmacokinetic behaviors of some compounds of the present invention, and administration routes were: per oral administration (PO) to ICR mice: The compounds used in this test came from the compounds of the specific examples of the present invention. ICR mice male N=3 original source: Shanghai Sippr-BK Laboratory Animal Co. Ltd. 2.3 Preparation and Administration of Medicaments […]
Give bare numbers, in h.

INSERT INTO measurements (structure, result_unit, reading) VALUES
  ('COC(=O)[C@@H]1CCCCN1Cc1cnc(C(=O)Nc2cccc(-c3cccc(NC(=O)c4cc(OC)c(CN5CCCC[C@H]5C(=O)OC)cn4)c3C)c2C)cc1OC', 'h', 2);

# input for lookup
(Q) Request the reported Tmax associated with "COC(=O)[C@@H]1CCCCN1Cc1cnc(C(=O)Nc2cccc(-c3cccc(NC(=O)c4cc(C)c(CN5CCCC[C@H]5C(=O)OC)cn4)c3C)c2C)cc1C"
(A) 6

###

Biological target: interaction between PD-1 and PD-L1 expressed on cell surfaces (Homo sapiens (Human), UniProt Q9NZQ7)
Sequence (Q9NZQ7 19-290): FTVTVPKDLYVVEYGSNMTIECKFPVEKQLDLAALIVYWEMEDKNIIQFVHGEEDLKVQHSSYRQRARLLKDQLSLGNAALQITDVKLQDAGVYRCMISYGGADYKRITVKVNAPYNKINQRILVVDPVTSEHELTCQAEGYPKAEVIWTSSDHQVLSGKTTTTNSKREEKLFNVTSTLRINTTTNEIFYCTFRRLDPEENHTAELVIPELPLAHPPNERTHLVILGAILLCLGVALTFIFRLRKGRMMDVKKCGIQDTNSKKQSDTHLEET
Test: Jurkat reporter gene cellular assay (Jurkat/NF-κB-luc/PD1 cells cocultured with Raji-PD-L1 cells, OKT-3 stimulation)
Assay type: cell-based
Conditions: NF-κB-luc reporter activation fold, 6 hrs; read-out: Cell Activity EC50
Experimental: B. Jurkat Reporter Gene Cellular Assay The effect of compounds of the examples of the present invention and positive compounds on the interaction between PD-1 and PD-L1 expressed on cell surfaces, and the related influence on T cell functions, were determined by a Jurkat reporter gene cellular assay. […] 4. the reading of each well treated with the compound was compared with the reading of each well treated with DMSO to obtain the activation fold of the compound; and […]
Please respond with reported EC50 for every item in the list.
One number for each entry, in nM.

INSERT INTO results (compound, endpoint, reading) VALUES
  ('COC(=O)[C@@H](CO)NCc1cnc(C(=O)Nc2cccc(-c3cccc(NC(=O)c4cc(C5CC5)c(CN[C@H](CO)C(=O)OC)cn4)c3C)c2C)cc1C1CC1', 'EC50', 296),
  ('COc1cc(C(=O)Nc2cccc(-c3cccc(NC(=O)c4cc(OC)c(CN5CC(OC)C5)cn4)c3C)c2C)ncc1CN1CC(OC)C1', 'EC50', 288),
  ('Cc1c(NC(=O)c2cc(C3CC3)c(CN3CCCC[C@H]3C(=O)O)cn2)cccc1-c1cccc(NC(=O)c2cc(C3CC3)c(CN3CCCC[C@H]3C(=O)O)cn2)c1C', 'EC50', 51),
  ('COc1cc(C(=O)Nc2cccc(-c3cccc(NC(=O)c4cc(OC)c(CNCC(=O)O)cn4)c3C)c2C)ncc1CNCC(=O)O', 'EC50', 349),
  ('COC[C@H](NCc1cnc(C(=O)Nc2cccc(-c3cccc(NC(=O)c4cc(OC)c(CN[C@@H](COC)C(=O)O)cn4)c3C)c2C)cc1OC)C(=O)O', 'EC50', 171);

Would you be so kind as to report EC50 for each listed record?
1. Cc1cc(C(=O)Nc2cccc(-c3cccc(NC(=O)c4cc(C)c(CN[C@@H](CO)C(=O)O)cn4)c3C)c2C)ncc1CN[C@@H](CO)C(=O)O
2. COC(=O)CNCc1cnc(C(=O)Nc2cccc(-c3cccc(NC(=O)c4cc(OC)c(CNCC(=O)OC)cn4)c3C)c2C)cc1OC

(A)
1. 249
2. 691

Take each entry in turn and give its EC50.
1. CCOC(=O)[C@@H](NCc1cnc(C(=O)Nc2cccc(-c3cccc(NC(=O)c4cc(C5CC5)c(CN[C@H](C(=O)OCC)[C@@H](C)O)cn4)c3C)c2C)cc1C1CC1)[C@@H](C)O
2. Cc1c(NC(=O)c2cc(C3CC3)c(CN[C@H](CC(=O)O)C(=O)O)cn2)cccc1-c1cccc(NC(=O)c2cc(C3CC3)c(CN[C@H](CC(=O)O)C(=O)O)cn2)c1C
3. COc1cc(C(=O)Nc2cccc(-c3cccc(NC(=O)c4cc(OC)c(CNCCS(C)(=N)=O)cn4)c3C)c2C)ncc1CNCCS(C)(=N)=O (centres unmarked)
4. Cc1cc(C(=O)Nc2cccc(-c3cccc(NC(=O)c4cc(C)c(CN5CCCC[C@@H]5C(=O)O)cn4)c3C)c2C)ncc1CN1CCCC[C@@H]1C(=O)O

(A)
5950
1040
182
1460

For each of the compounds below, state EC50.
1. COc1cc(C(=O)Nc2cccc(-c3cccc(NC(=O)c4cc(OC)c(CN5CCOC[C@H]5C(=O)O)cn4)c3C)c2C)ncc1CN1CCOC[C@H]1C(=O)O
2. CC(=O)NCCNCc1cnc(C(=O)Nc2cccc(-c3cccc(NC(=O)c4cc(C)c(CNCCNC(C)=O)cn4)c3C)c2C)cc1C
3. COC(=O)[C@@H]1CCCCN1Cc1cnc(C(=O)Nc2cccc(-c3cccc(NC(=O)c4cc(OC)c(CN5CCCC[C@H]5C(=O)OC)cn4)c3C)c2C)cc1OC
4. COC[C@@H](NCc1cnc(C(=O)Nc2cccc(-c3cccc(NC(=O)c4cc(OC)c(CN[C@H](COC)C(=O)OC)cn4)c3C)c2C)cc1OC)C(=O)OC
5. Cc1c(NC(=O)c2cc(C3CC3)c(CN3CC[C@@H](O)C3)cn2)cccc1-c1cccc(NC(=O)c2cc(C3CC3)c(CN3CC[C@@H](O)C3)cn2)c1C
6. COc1cc(C(=O)Nc2cccc(-c3cccc(NC(=O)c4cc(OC)c(CN5CCC[C@H]5C(=O)O)cn4)c3C)c2C)ncc1CN1CCC[C@H]1C(=O)O
7. Cc1c(NC(=O)c2cc(C3CC3)c(CN[C@H]3CCOC3=O)cn2)cccc1-c1cccc(NC(=O)c2cc(C3CC3)c(CN[C@H]3CCOC3=O)cn2)c1C

(A)
[4600, 310, 1860, 3060, 122, 319, 979]

List reported EC50 for each of these compounds:
1. COc1cc(C(=O)Nc2cccc(-c3cccc(NC(=O)c4cc(OC)c(CNC5COC5)cn4)c3C)c2C)ncc1CNC1COC1
2. COc1cc(C(=O)Nc2cccc(-c3cccc(NC(=O)c4cc(OC)c(CNCCS(C)(=O)=O)cn4)c3C)c2C)ncc1CNCCS(C)(=O)=O
3. COc1cc(C(=O)Nc2cccc(-c3cccc(NC(=O)c4cc(OC)c(CN[C@H](CCO)C(=O)O)cn4)c3C)c2C)ncc1CN[C@H](CCO)C(=O)O
4. COc1cc(C(=O)Nc2cccc(-c3cccc(NC(=O)c4cc(OC)c(CNCC5(O)CC5)cn4)c3C)c2C)ncc1CNCC1(O)CC1

(A)
1. 4770
2. 3740
3. 756
4. 74
